- Measured Target: Human CYP2D6 SUPERSOMES (Homo sapiens)
- Construct: purchased GenTest (Woburn, Mass., USA)
- Sequence (P10635 whole entry): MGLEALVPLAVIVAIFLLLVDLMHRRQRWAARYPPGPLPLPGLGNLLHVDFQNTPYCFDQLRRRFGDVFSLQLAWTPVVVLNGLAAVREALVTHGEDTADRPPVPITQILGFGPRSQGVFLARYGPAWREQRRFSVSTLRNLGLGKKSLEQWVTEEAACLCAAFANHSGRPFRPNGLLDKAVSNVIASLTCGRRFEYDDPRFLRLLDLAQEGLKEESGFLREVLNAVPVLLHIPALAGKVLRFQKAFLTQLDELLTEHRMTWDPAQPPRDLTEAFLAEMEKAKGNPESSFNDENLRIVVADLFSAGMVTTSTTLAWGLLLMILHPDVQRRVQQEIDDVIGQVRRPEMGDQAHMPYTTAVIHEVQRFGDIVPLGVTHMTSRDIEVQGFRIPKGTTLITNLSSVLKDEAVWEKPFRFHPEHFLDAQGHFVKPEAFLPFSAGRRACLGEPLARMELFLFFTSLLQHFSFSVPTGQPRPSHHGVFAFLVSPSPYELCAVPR
- Run Description: Metabolic stability in CYP2D6 SUPERSOMES
- Assay type: in vitro ADME
- Study Conditions: 50 pmol/mL CYP2D6 SUPERSOMES, 1 μM test compound, 2 mM NADPH, 37° C., 0-30 minutes, triplicate
- Text: Human CYP2D6 SUPERSOMES™ were purchased from GenTest (Woburn, Mass., USA). […] Supernatants were transferred to another 96-well plate and analyzed for amounts of parent remaining by LC-MS/MS using an Applied Bio-systems API 4000 mass spectrometer. […]
Structures can show the parent of a compound that is named as a salt.
Property Name: t1/2 ± SD, calculated half-life in SUPERSOMES (min)
One number for each entry, in min.

Example compounds with recorded t1/2 ± SD, calculated half-life in SUPERSOMES:
Compound	Value Unit	Readout Value
CCOc1ccc2c(c1)[C@@]13CCCC[C@H]1[C@@H](C2)N(C)CC3 [Dextroethorphan, (+)-3-ethoxy-17-methylmorphinan, reference compound]	min	10.3
[2H]C([2H])([2H])N1CC[C@@]23CCCC[C@@H]2[C@@H]1Cc1ccc(OC([2H])([2H])C([2H])([2H])[2H])cc13 [Compound 100, hydrochloride]	min	51.3
[2H]C([2H])([2H])C([2H])([2H])Oc1ccc2c(c1)[C@]13CCCC[C@@H]1[C@H](C2)N(C)CC3 [Compound 104, hydrochloride]	min	49.1
COc1ccc2c(c1)[C@]13CCCC[C@@H]1[C@H](C2)N(C)CC3 [Dextromethorphan, reference compound]	min	1.7

// below: t1/2 ± SD, calculated half-life in SUPERSOMES requested for another compound
Any idea what its t1/2 ± SD, calculated half-life in SUPERSOMES is? The compound is [2H]C([2H])([2H])Oc1ccc2c(c1)[C@]13CCCC[C@@H]1[C@H](C2)N(C([2H])([2H])[2H])CC3 [Test Compound, reference compound]
5.6

FYI, the data here is from patent US10813926B2.
